src = ChEMBL document CHEMBL4257442

Protocol Details: Cytotoxicity against mouse J774A.1 cells after 2 hrs by MTT assay
Type: cell-based, J774.A1
# CC50 at 2 h values compiled below
Property Label: CC50 at 2 h (µM)

INSERT INTO results (compound, property_label, assay_value) VALUES
  ('COc1ccc(C(c2nnnn2C(C)(C)C)N2CCc3c([nH]c4ccccc34)C2)cc1 (centres undefined)', 'CC50 at 2 h', 42),
  ('COc1ccc(C(c2nnnn2C(C)(C)C)N2CCc3c([nH]c4ccccc34)C2)cc1OC (centres undefined)', 'CC50 at 2 h', 138),
  ('Clc1ccc(C(c2nnnn2C2CCCCC2)N2CCc3c([nH]c4ccccc34)C2)cc1 (centres undefined)', 'CC50 at 2 h', 35.5),
  ('CC(C)(C)n1nnnc1C(c1ccccc1)N1CCc2c([nH]c3ccccc23)C1 (centres undefined)', 'CC50 at 2 h', 146),
  ('CC(C)(C)n1nnnc1C(c1ccc(C#N)cc1)N1CCc2c([nH]c3ccccc23)C1 (centres undefined)', 'CC50 at 2 h', 150),
  ('COc1cc(C(c2nnnn2C2CCCCC2)N2CCc3c([nH]c4ccccc34)C2)cc(OC)c1OC (centres undefined)', 'CC50 at 2 h', 36),
  ('COc1ccc(C(c2nnnn2C2CCCCC2)N2CCc3c([nH]c4ccccc34)C2)cc1OC (centres undefined)', 'CC50 at 2 h', 41.9),
  ('CCCCCCCCCCCCCCCCOP(=O)([O-])OCC[N+](C)(C)C [MILTEFOSINE]', 'CC50 at 2 h', 12.4),
  ('CC(C)(C)n1nnnc1C(c1cccc([N+](=O)[O-])c1)N1CCc2c([nH]c3ccccc23)C1 (centres undefined)', 'CC50 at 2 h', 150),
  ('CC(C)(C)n1nnnc1C(c1ccc(F)cc1)N1CCc2c([nH]c3ccccc23)C1 (centres undefined)', 'CC50 at 2 h', 48.8),
  ('CC(C)c1ccc(C(c2nnnn2C(C)(C)C)N2CCc3c([nH]c4ccccc34)C2)cc1 (centres undefined)', 'CC50 at 2 h', 130),
  ('CC(C)(C)n1nnnc1C(c1ccc(Cl)cc1)N1CCc2c([nH]c3ccccc23)C1 (centres undefined)', 'CC50 at 2 h', 37),
  ('CC(C)(C)n1nnnc1C(c1ccc(Br)cc1)N1CCc2c([nH]c3ccccc23)C1 (centres undefined)', 'CC50 at 2 h', 144),
  ('CC(C)(C)n1nnnc1C(c1ccc([N+](=O)[O-])cc1)N1CCc2c([nH]c3ccccc23)C1 (centres undefined)', 'CC50 at 2 h', 140);
